- Tested on: CAL-51
- Assay details: normalised response (% of control), CellTox Green; higher = less cell death (100 = DMSO, 0 = benzethonium chloride kill control)
- Recorded conditions: incubation time: 72 h
Outcome measure: normalised response (%)
Please give a number only; it is taken to be in %.

molecule="COc1cccc2c1C(=O)c1c(O)c3c(c(O)c1C2=O)C[C@@](O)(C(C)=O)C[C@@H]3O[C@H]1C[C@H](N)[C@H](O)[C@H](C)O1 [Daunorubicin] (1000 nM)" recorded_value=42.6
molecule="C[C@@H]1CCN(C(=O)CC#N)C[C@@H]1N(C)c1ncnc2[nH]ccc12 [Tofacitinib] (500 nM)" recorded_value=103
molecule="O=c1[nH]cc(F)c(=O)[nH]1 [Fluorouracil] (1000 nM)" recorded_value=114
molecule="CC(=O)O[C@H]1C(=O)[C@@]2(C)[C@H]([C@H](OC(=O)c3ccccc3)[C@]3(O)C[C@H](OC(=O)[C@H](O)[C@@H](NC(=O)c4ccccc4)c4ccccc4)C(C)=C1C3(C)C)[C@]1(OC(C)=O)CO[C@@H]1C[C@@H]2O [Paclitaxel] (10 nM)" recorded_value=19.9
molecule="CC(C)C[C@H](NC(=O)[C@H](Cc1ccccc1)NC(=O)c1cnccn1)B(O)O [Bortezomib] (1000 nM)" recorded_value=15.4

Consider now this further molecule.
**Q:** Looking for the measured normalised response of C[C@@]1(C(=O)Nc2ccc(F)nc2)CCCN1c1nc(Nc2cc(C3CC3)n[nH]2)c2cccn2n1 (100 nM) , can you help?
**A:** 104

====

normalised response overview
- Test system: CAL-85-1
- Assay details: normalised response (% of control), CellTox Green; higher = less cell death (100 = DMSO, 0 = benzethonium chloride kill control)
- Recorded conditions: incubation time: 72 h
Please give a number only; it is taken to be in %.

The cases that follow already have their normalised response on record.
compound="COC1=C2C[C@@H](C)C[C@H](OC)[C@H](O)[C@@H](C)/C=C(\\C)[C@H](OC(N)=O)[C@@H](OC)/C=C\\C=C(/C)C(=O)NC(=CC1=O)C2=O [Geldanamycin] (100 nM)" tested_system=CAL-85-1 recorded_value=96.5
compound="CN1CCN(c2ccc3nc(-c4c(N)c5c(F)cccc5[nH]c4=O)[nH]c3c2)CC1 [Dovitinib] (10000 nM)" tested_system=CAL-85-1 recorded_value=86.8
compound="COC1=C2C[C@@H](C)C[C@H](OC)[C@H](O)[C@@H](C)/C=C(\\C)[C@H](OC(N)=O)[C@@H](OC)/C=C\\C=C(/C)C(=O)NC(=CC1=O)C2=O [Geldanamycin] (1000 nM)" tested_system=CAL-85-1 recorded_value=91
compound="COC1=CC(c2cc3ccccc3[nH]2)=N/C1=C\\c1[nH]c(C)cc1C [Obatoclax] (100 nM)" tested_system=CAL-85-1 recorded_value=87.6
compound="CN1CCN(c2ccc3nc(-c4c(N)c5c(F)cccc5[nH]c4=O)[nH]c3c2)CC1 [Dovitinib] (1000 nM)" tested_system=CAL-85-1 recorded_value=97.8

Consider now this further compound.
**Q:** Looking for the measured normalised response of COc1cccc2c1C(=O)c1c(O)c3c(c(O)c1C2=O)C[C@@](O)(C(C)=O)C[C@@H]3O[C@H]1C[C@H](N)[C@H](O)[C@H](C)O1 [Daunorubicin] (100 nM) , can you help?
**A:** 102

====

- Test system: CAL-120
- Assay details: normalised viability (% of control), CellTiter-Blue; higher = more viable cells (100 = DMSO, 0 = benzethonium chloride kill control)
- Recorded conditions: incubation time: 72 h
Outcome measure: normalised viability (%)
Please give a number only; it is taken to be in %.

The cases that follow already have their normalised viability on record.
molecule="Cn1cnc2c(F)c(Nc3ccc(Br)cc3F)c(C(=O)NOCCO)cc21 [MEK-162] (0.1 nM)" outcome_measure="normalised viability" recorded_value=83.7
molecule="C#Cc1cccc(Nc2ncnc3cc(OC)c(OCCCCCCC(=O)NO)cc23)c1 [CUDC-101] (1 nM)" outcome_measure="normalised viability" recorded_value=79.4

Consider now this further molecule.
**Q:** Looking for the measured normalised viability of Cn1c(=O)c(F)c(Nc2ccc(I)cc2F)c2c(=O)n(C[C@@H](O)CO)cnc21 [TAK-733] (0.1 nM) , can you help?
**A:** 87.1

====

- Test system: BT-549
- Assay details: normalised viability (% of control), CellTiter-Blue; higher = more viable cells (about 100 = DMSO control)
- Recorded conditions: 10000 nM; incubation time: 72 h
Outcome measure: normalised viability (%)
Please give a number only; it is taken to be in %.

The cases that follow already have their normalised viability on record.
molecule=COC1=C2C[C@@H](C)C[C@H](OC)[C@H](O)[C@@H](C)/C=C(\C)[C@H](OC(N)=O)[C@@H](OC)/C=C\C=C(/C)C(=O)NC(=CC1=O)C2=O recorded_value=15.9
molecule="O=P(O)(NCCCl)NCCCl [Ifosfamide mustard]" recorded_value=107
molecule=COC1=CC(c2cc3ccccc3[nH]2)=N/C1=C\c1[nH]c(C)cc1C recorded_value=17.7

**Q:** Looking for the measured normalised viability of O=C(c1ccc(OCCN2CCCCC2)cc1)c1c(-c2ccc(O)cc2)sc2cc(O)ccc12 , can you help?
**A:** 56.8

**Q:** Looking for the measured normalised viability of COC(=O)C[C@](O)(CCCC(C)(C)O)C(=O)O[C@@H]1C(OC)=C[C@]23CCCN2CCc2cc4c(cc2[C@H]13)OCO4 [Omacetaxine mepesuccinate] , can you help?
**A:** 4.5

**Q:** Looking for the measured normalised viability of COc1ccc(C2=N[C@@H](c3ccc(Cl)cc3)[C@@H](c3ccc(Cl)cc3)N2C(=O)N2CCNC(=O)C2)c(OC(C)C)c1 , can you help?
**A:** 103

**Q:** Looking for the measured normalised viability of O=c1[nH]cc(F)c(=O)[nH]1 , can you help?
**A:** 74.2

====

- Test system: HDQ-P1
- Assay details: normalised response (% of control), CellTox Green; higher = less cell death (100 = DMSO, 0 = benzethonium chloride kill control)
- Recorded conditions: incubation time: 72 h
normalised response overview
Please give a number only; it is taken to be in %.

The cases that follow already have their normalised response on record.
compound="C[C@@]1(C(=O)Nc2ccc(F)nc2)CCCN1c1nc(Nc2cc(C3CC3)n[nH]2)c2cccn2n1 (1000 nM)" value_unit=% recorded_value=82.1
compound="O=C(c1ccc(OCCN2CCCCC2)cc1)c1c(-c2ccc(O)cc2)sc2cc(O)ccc12 [Raloxifene] (10000 nM)" value_unit=% recorded_value=50.4
compound="CCOc1cc2ncc(C#N)c(Nc3ccc(OCc4ccccn4)c(Cl)c3)c2cc1NC(=O)/C=C/CN(C)C [Neratinib] (10 nM)" value_unit=% recorded_value=98.1
compound="CS(=O)(=O)CCNCc1ccc(-c2ccc3ncnc(Nc4ccc(OCc5cccc(F)c5)c(Cl)c4)c3c2)o1 [Lapatinib] (10 nM)" value_unit=% recorded_value=82.1

Consider now this further compound.
**Q:** Looking for the measured normalised response of C[C@@H]1C=C2C(=O)O[C@@H]3CC[C@H](C1)[C@]23O [Galiellalactone] (5000 nM) , can you help?
**A:** 98.5

====

- System: MFM-223
- Assay details: normalised response (% of control), CellTiter-Glo; higher = more viable cells (100 = DMSO, 0 = benzethonium chloride kill control)
- Recorded conditions: incubation time: 72 h
Outcome measure: normalised response (%)
Please give a number only; it is taken to be in %.

The cases that follow already have their normalised response on record.
molecule="Cn1c(=O)c(F)c(Nc2ccc(I)cc2F)c2c(=O)n(C[C@@H](O)CO)cnc21 [TAK-733] (0.1 nM)" tested_system=MFM-223 outcome_measure="normalised response" recorded_value=108
molecule="CN(c1ccccc1CNc1nc(Nc2ccc3c(c2)CC(=O)N3)ncc1C(F)(F)F)S(C)(=O)=O (1 nM)" tested_system=MFM-223 outcome_measure="normalised response" recorded_value=89.5
molecule="CCS(=O)(=O)c1cccc(-c2cc(C(=O)NC3CCN(C)CC3)c(C)c3[nH]c4ncc(C)cc4c23)c1 [TAK-901] (0.1 nM)" tested_system=MFM-223 outcome_measure="normalised response" recorded_value=106
molecule="Cc1cc(C(C)Nc2ccccc2)c2nc(N3CCOCC3)cc(=O)n2c1 (stereo not drawn) [TGX-221] (1 nM)" tested_system=MFM-223 outcome_measure="normalised response" recorded_value=101
molecule="CC(C)(C)c1cc(NC(=O)Nc2ccc(-c3cn4c(n3)sc3cc(OCCN5CCOCC5)ccc34)cc2)no1 [Quizartinib] (0.1 nM)" tested_system=MFM-223 outcome_measure="normalised response" recorded_value=108
molecule="Nc1nccc(-c2c(-c3ccc(F)cc3)ncn2C2CCCCC2)n1 (1 nM)" tested_system=MFM-223 outcome_measure="normalised response" recorded_value=102

**Q:** Looking for the measured normalised response of O=c1[nH]cc(F)c(=O)[nH]1 [Fluorouracil] (1 nM) , can you help?
**A:** 110

**Q:** Looking for the measured normalised response of COC(=O)C[C@](O)(CCCC(C)(C)O)C(=O)O[C@@H]1C(OC)=C[C@]23CCCN2CCc2cc4c(cc2[C@H]13)OCO4 [Omacetaxine] (10 nM) , can you help?
**A:** 106

**Q:** Looking for the measured normalised response of C[C@@H]1CCN(C(=O)CC#N)C[C@@H]1N(C)c1ncnc2[nH]ccc12 [Tofacitinib] (5 nM) , can you help?
**A:** 101
